Assay comment: in vitro
Assay context: mouse
Give measured CC50 at 48 h for each item. Keep answers brief.
Quick note: give the figure in µM, leave out the unit.

stdin: For C=CC(=O)[C@H](C)NC(=O)[C@@H](Cc1ccccc1)NC(=O)OCc1ccccc1 , what is its reported CC50 at 48 h?
stdout: 85.9

stdin: For COC(=O)/C=C/C(=O)[C@@H](C)NC(=O)[C@H](Cc1ccccc1)NC(=O)OCc1ccccc1 then?
stdout: 73.5

stdin: Further, for C=CC(=O)[C@@H](C)NC(=O)[C@@H](Cc1ccccc1)NC(=O)OCc1ccccc1 ?
stdout: 102

---

Please respond with reported IC50 for every item in the list.
Tested system: UniProt P0C6X7
Quick note: give the figure in µM, leave out the unit.

stdin: Requested field: IC50. Item: COC(=O)/C=C/C(=O)[C@@H](C)NC(=O)[C@H](Cc1ccccc1)NC(=O)OCc1ccccc1 [Compound 1a]
stdout: 0.699

stdin: Similarly, C=CC(=O)[C@@H](C)NC(=O)[C@@H](Cc1ccccc1)NC(=O)OCc1ccccc1 [Compound 5a] ?
stdout: 0.11

---

Tested system: SARS-CoV-2 PL^pro (Severe acute respiratory syndrome coronavirus 2, UniProt P0DTD1)
Assay comment: biochemical
Assay context: 15-min pre-incubation, one assay in triplicate (n = 3), mean ± SE
So basically: inhibition at 10 µM at 2% or higher? That is T. Lower than 2%? That is F.

stdin: Assess whether reported inhibition at 10 µM for COC(=O)/C=C/C(=O)[C@@H](C)NC(=O)[C@H](Cc1ccccc1)NC(=O)OCc1ccccc1 sits at 2% or higher.
stdout: F

stdin: Entry O=C(NC(CCc1ccccc1)C(O)c1cc1=O)C(Cc1ccccc1)NC(=O)N1CCOCC1 (centres unmarked) please
stdout: T

stdin: Check C=CC(=O)[C@@H](C)NC(=O)[C@@H](Cc1ccccc1)NC(=O)OCc1ccccc1 too.
stdout: T

stdin: Likewise for CCOC(=O)C1CCN(C(=O)N[C@@H](CC(C)C)C(=O)N[C@@H](/C=C/S(=O)(=O)c2ccccc2)COc2ccccc2)CC1 ?
stdout: F

stdin: And for O=C(N[C@H](CCc1ccccc1)C(=O)CS(=O)(=O)c1ccccc1)[C@H](Cc1ccccc1)NC(=O)N1CCOCC1 ?
stdout: F

---

Assay comment: in vitro
Assay context: green monkey
Attribute measured: CC50 at 48 h (µM)
Supply the numeric figure in µM, leaving out any unit text.

stdin: Find the recorded CC50 at 48 h belonging to COC(=O)/C=C/C(=O)[C@@H](C)NC(=O)[C@H](Cc1ccccc1)NC(=O)OCc1ccccc1 and report it.
stdout: 17.2

stdin: Query C=CC(=O)[C@@H](C)NC(=O)[C@@H](Cc1ccccc1)NC(=O)OCc1ccccc1 next
stdout: 49

stdin: Can you check C=CC(=O)[C@H](C)NC(=O)[C@@H](Cc1ccccc1)NC(=O)OCc1ccccc1 next?
stdout: 37.5

---

What follows is a record of IC50 for MERS-CoV M^pro (Middle East respiratory syndrome-related coronavirus, UniProt K9N7C7).
Write down the numeric answer in µM and omit the unit.

stdin: Given the entry C=CC(=O)[C@@H](C)NC(=O)[C@@H](Cc1ccccc1)NC(=O)OCc1ccccc1 , what IC50 was observed with MERS-CoV M^pro (Middle East respiratory syndrome-related coronavirus, UniProt K9N7C7)?
stdout: 0.83

stdin: Further, for COC(=O)/C=C/C(=O)[C@@H](C)NC(=O)[C@H](Cc1ccccc1)NC(=O)OCc1ccccc1 ?
stdout: 3.79

---

Field: pIC50. Provide a value for each of the compounds that follow.
Tested system: SARS-CoV-2 M^pro (Severe acute respiratory syndrome coronavirus 2, UniProt P0DTD1)
Assay comment: biochemical
Type: biochemical
Assay context: 15-min pre-incubation; two independent assays in triplicate (n = 6)
pIC50 here is simply -log10 of the concentration when that concentration is written in mol/L.

stdin: If you can, please state the reported pIC50 value of COC(=O)/C=C/C(=O)[C@@H](C)NC(=O)[C@H](Cc1ccccc1)NC(=O)OCc1ccccc1 [Compound 1a] .
stdout: 6.38

stdin: What do you have for O=C(N[C@H](CCc1ccccc1)C(=O)CS(=O)(=O)c1ccccc1)[C@H](Cc1ccccc1)NC(=O)N1CCOCC1 [Compound 4a] ?
stdout: 5.06

stdin: Let us now turn to CCOC(=O)C1CCN(C(=O)N[C@@H](CC(C)C)C(=O)N[C@@H](/C=C/S(=O)(=O)c2ccccc2)COc2ccccc2)CC1 [Compound 3a]
stdout: 4.78

stdin: // next record C=CC(=O)[C@H](C)NC(=O)[C@@H](Cc1ccccc1)NC(=O)OCc1ccccc1 [Compound 5b]
stdout: 6.89

stdin: // same read-out, input: C=CC(=O)[C@@H](C)NC(=O)[C@@H](Cc1ccccc1)NC(=O)OCc1ccccc1 [Compound 5a]
stdout: 6.80

stdin: Moving on to the next compound: O=C(NC(CCc1ccccc1)C(O)c1cc1=O)C(Cc1ccccc1)NC(=O)N1CCOCC1 (stereo not drawn) [Compound 2a]
stdout: 5.09

---

Tested system: SARS-CoV-2 M^pro (Severe acute respiratory syndrome coronavirus 2)
Assay comment: biochemical
Assay context: compound at 10 μM; 15-min pre-incubation; relative to DMSO control; mean ± SE
Attribute measured: inhibition at 10 µM (%)
Express your answer in %, writing the number without its unit.

stdin: Would you mind telling me what inhibition at 10 µM value was observed for CCOC(=O)C1CCN(C(=O)N[C@@H](CC(C)C)C(=O)N[C@@H](/C=C/S(=O)(=O)c2ccccc2)COc2ccccc2)CC1 ?
stdout: 51.5

stdin: Next record, please: O=C(NC(CCc1ccccc1)C(O)c1cc1=O)C(Cc1ccccc1)NC(=O)N1CCOCC1 (stereo not drawn)
stdout: 54

stdin: What do we get for C=CC(=O)[C@H](C)NC(=O)[C@@H](Cc1ccccc1)NC(=O)OCc1ccccc1 ?
stdout: 100

stdin: Here is the next molecule: O=C(N[C@H](CCc1ccccc1)C(=O)CS(=O)(=O)c1ccccc1)[C@H](Cc1ccccc1)NC(=O)N1CCOCC1
stdout: 52.5

---

Tested system: human cathepsin L (hCatL) (Homo sapiens, UniProt P07711)
Construct: purchased R&D Systems 952-CY-010
Sequence (P07711 114-333): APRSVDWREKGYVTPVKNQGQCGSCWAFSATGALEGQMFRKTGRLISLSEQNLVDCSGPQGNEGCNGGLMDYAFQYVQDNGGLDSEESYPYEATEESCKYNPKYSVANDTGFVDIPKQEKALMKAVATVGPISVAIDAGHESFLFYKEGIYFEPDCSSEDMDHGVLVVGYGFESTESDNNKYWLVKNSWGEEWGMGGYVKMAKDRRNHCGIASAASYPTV
Assay comment: hCatL inhibition assay (Z-Phe-Arg-AMC)
Type: biochemical
Assay context: 15-min pre-incubation; pH 5.5; n = 6
Would you kindly list IC50 for each of these compounds?
Give just the number in nM; leave the unit off.

stdin: Notebook entry, human cathepsin L (hCatL) (Homo sapiens, UniProt P07711) assay: IC50 of O=C(N[C@H](CCc1ccccc1)C(=O)CS(=O)(=O)c1ccccc1)[C@H](Cc1ccccc1)NC(=O)N1CCOCC1 = ?
stdout: 10700

stdin: How about O=C(NC(CCc1ccccc1)C(O)c1cc1=O)C(Cc1ccccc1)NC(=O)N1CCOCC1 (stereo not drawn) ?
stdout: 184

stdin: Query COC(=O)/C=C/C(=O)[C@@H](C)NC(=O)[C@H](Cc1ccccc1)NC(=O)OCc1ccccc1 next
stdout: 319

stdin: Now give it for CCOC(=O)C1CCN(C(=O)N[C@@H](CC(C)C)C(=O)N[C@@H](/C=C/S(=O)(=O)c2ccccc2)COc2ccccc2)CC1 too.
stdout: 763

---

Reported IC50 for target or system SARS-CoV M^pro (Severe acute respiratory syndrome coronavirus, UniProt P0C6X7), by entry.

stdin: Request - read-out IC50 | tested on SARS-CoV M^pro (Severe acute respiratory syndrome coronavirus, UniProt P0C6X7) | compound O=C(N[C@H](CCc1ccccc1)C(=O)CS(=O)(=O)c1ccccc1)[C@H](Cc1ccccc1)NC(=O)N1CCOCC1
stdout: > 10 µM

stdin: // next record CCOC(=O)C1CCN(C(=O)N[C@@H](CC(C)C)C(=O)N[C@@H](/C=C/S(=O)(=O)c2ccccc2)COc2ccccc2)CC1
stdout: > 10 µM

stdin: Here is the next compound: O=C(NC(CCc1ccccc1)C(O)c1cc1=O)C(Cc1ccccc1)NC(=O)N1CCOCC1 (stereo not drawn)
stdout: > 10 µM

---

Tested system: UniProt K9N7C7
Attribute measured: IC50

stdin: Fill in the blank: the reported IC50 of CCOC(=O)C1CCN(C(=O)N[C@@H](CC(C)C)C(=O)N[C@@H](/C=C/S(=O)(=O)c2ccccc2)COc2ccccc2)CC1 is ____.
stdout: > 10 µM

stdin: Consider next the molecule O=C(N[C@H](CCc1ccccc1)C(=O)CS(=O)(=O)c1ccccc1)[C@H](Cc1ccccc1)NC(=O)N1CCOCC1 in the same way.
stdout: > 10 µM

stdin: Would you mind doing O=C(NC(CCc1ccccc1)C(O)c1cc1=O)C(Cc1ccccc1)NC(=O)N1CCOCC1 (stereo not drawn) as well?
stdout: > 10 µM
